# SYSTEM NAME: UniProt:Q8ILY1
# Sequence (Q8ILY1 entry or part of it): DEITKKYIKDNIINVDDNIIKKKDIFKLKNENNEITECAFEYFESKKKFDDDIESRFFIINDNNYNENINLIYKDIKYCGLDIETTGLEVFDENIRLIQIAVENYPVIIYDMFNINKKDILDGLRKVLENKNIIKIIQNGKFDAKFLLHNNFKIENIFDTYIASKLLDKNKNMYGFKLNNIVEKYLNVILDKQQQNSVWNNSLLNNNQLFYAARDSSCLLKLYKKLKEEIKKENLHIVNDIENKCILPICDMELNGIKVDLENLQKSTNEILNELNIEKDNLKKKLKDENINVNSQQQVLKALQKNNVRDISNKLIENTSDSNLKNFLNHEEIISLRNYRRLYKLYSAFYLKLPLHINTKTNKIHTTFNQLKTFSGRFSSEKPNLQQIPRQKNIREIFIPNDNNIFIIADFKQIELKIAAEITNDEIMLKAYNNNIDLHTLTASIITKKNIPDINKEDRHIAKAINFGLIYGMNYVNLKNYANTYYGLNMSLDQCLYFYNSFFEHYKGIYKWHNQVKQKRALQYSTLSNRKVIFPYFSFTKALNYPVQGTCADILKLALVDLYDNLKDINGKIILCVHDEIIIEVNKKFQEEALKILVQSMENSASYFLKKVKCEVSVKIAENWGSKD
# EXPERIMENT SUMMARY: Fluorescence-based high-throughput DNA polymerase assay (molecular beacon), primary screen and dose-response;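 further: test concentration in µM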
# Type: biochemical
# CONDITION INFO: DRC-2; 180'; concentration 40
EXPERIMENTAL READOUT: % inhibition apPOL 180' (%)

{"columns": ["MOLECULE", "RESULT"],
 "data": [
  ["O=C(Cc1cc(=O)[nH]c(SCc2ccccc2)n1)Nc1ccc2c(c1)OCO2", 62],
  ["NC(=O)c1cc[n+](CC2=C(C(=O)[O-])N3C(=O)[C@@H](NC(=O)[C@@H](c4ccccc4)S(=O)(=O)[O-])[C@H]3SC2)cc1.[Na+]", 83],
  ["N#Cc1c(O)nc(N2CCCCC2)nc1-c1ccc2c(c1)OCO2", 53],
  ["CCOc1cccc2cc(C(=O)Nc3nnc(-c4ccno4)o3)oc12", 61],
  ["Nc1c(S(=O)(=O)O)cc(Nc2ccccc2)c2c1C(=O)c1ccccc1C2=O", 85],
  ["Cc1cccc(-c2nnc3ccc(NS(=O)(=O)c4ccc(C)c(C)c4)nn23)c1", 60],
  ["O=C(Cc1cccs1)N1CCN(c2nc(CN3CCOCC3)cs2)CC1", 69],
  ["Cc1ccc(C(=O)/C=C/C=C/C=C/N(C)C)o1", 51],
  ["CCCCc1ccc(NC(=O)CSc2nc(O)c(C#N)c(C3CCCCC3)n2)c(C)c1", 71],
  ["CCCCCCCCCCCCCCCCCC(=O)CCN(C)C", 31],
  ["Cc1cc(C)c2c(O)nc(SCC(=O)c3ccc(O)c(O)c3)nc2n1", 63],
  ["O=C(CSc1nnc(-c2ccco2)[nH]1)c1ccc(Cl)cc1", -5],
  ["CCOc1nc2cccc(C(=O)OC(C)OC(=O)OC3CCCCC3)c2n1Cc1ccc(-c2ccccc2-c2nnn[nH]2)cc1 (stereo not shown)", 75],
  ["CC(C)(C)OC(=O)COc1ccc2cc(-c3ccccc3)c(=O)oc2c1", 13],
  ["Cc1ccccc1C(=O)N1CCc2c(nc3cc(-c4ccccc4)[nH]n3c2=O)C1", 55],
  ["O=C(O)c1cccc(N2N=C(C(F)(F)F)/C(=C/c3ccc(-c4ccccc4[N+](=O)[O-])o3)C2=O)c1", 77],
  ["O=C1C(=Cc2ccccc2O)Oc2ccc(O)cc21", 45],
  ["CC(NC(=O)Cc1cc(=O)[nH]c(SCc2cccc(Cl)c2)n1)c1ccccc1 (stereo not shown)", 49],
  ["O=C1Nc2ccc(I)cc2C1=Cc1cc(Br)c(O)c(Br)c1", 72],
  ["COc1ccc(C)cc1NC(=O)Cn1ccc2c(=O)[nH]ccc21 [Molecule 15, COc1ccc(cc1NC(=O)Cn1ccc2c1cc[nH]c2=O)C]", 72],
  ["Cc1ccc(C)c(CSc2nc(C3CCCCC3)c(C#N)c(=O)[nH]2)c1", 80],
  ["C=CCOc1c(Br)cc(Br)cc1/C=C1\\SC(=N)NC1=O", 76],
  ["O=C(CSc1nc2ccccc2s1)Nc1ncc([N+](=O)[O-])s1", -7],
  ["O=C(CSc1nnc(-c2ccncc2)[nH]1)c1ccc(O)c(O)c1", 76],
  ["CCN1C(=O)C(=Cc2cccc(OC)c2O)SC1=S", 23],
  ["CCC(C)NC(=O)c1cc(NC(C)=O)cc2nc(C)ccc12 (stereo not shown)", 48],
  ["O=C(Cn1ccc2c(=O)[nH]ccc21)Nc1cc(F)ccc1F [Molecule 42, O=C(Cn1ccc2c1cc[nH]c2=O)Nc1cc(F)ccc1F]", 59],
  ["CCCCC(=O)N1CCc2c(nc3cc(-c4ccccc4Cl)[nH]n3c2=O)C1", 55],
  ["COC(=O)c1sc(-c2ccc(C(C)(C)C)cc2)cc1NC(=O)CCC(=O)O", 72],
  ["CC(C)(C)c1cc(C(=O)C(C#N)=NNc2cccc(Cl)c2)no1", 55],
  ["COc1ccc(C(=O)N2CCc3c(nc4cc(-c5ccccc5Cl)[nH]n4c3=O)C2)cn1", 55],
  ["O=C1C(=Cc2ccncc2)Oc2c1ccc1c2CN(Cc2ccc3c(c2)OCO3)CO1", 28],
  ["Oc1cccc2ccc(/C=C/c3ccc4c(c3)OCO4)nc12", 70],
  ["O=C1NCCCn2cc(S(=O)(=O)Nc3ccccc3)cc21", 59]
]}

Every entry's value here was drawn from paper PMC9090415.
